# System: HL60 cells
# assay_comment: Cell cycle analysis (PI, flow cytometry)
# Assay type: cell-based, human
# setup_conditions: HL60, 10.0 µM, 24 h
recorded_endpoint: %S (%)
One number for each entry, in %.

Noted for CS(=O)(=O)c1ccc(C(=O)NN=Cc2cccc3ccccc23)cc1 [Compound 6] : its %S reads 28.42

Noted for CCN(CC)c1ccc(/C=N/NC(=O)c2ccc(S(C)(=O)=O)cc2)c(O)c1 [Compound 20] : its %S reads 29.43

Noted for CS(=O)(=O)c1ccc(C(=O)N/N=C/c2ccccc2O)cc1 [Compound 16] : its %S reads 22.49

From here, focus on the item given below.
Noted for Cc1ccc(C=NNC(=O)c2ccc(S(C)(=O)=O)cc2)cc1 [Compound 9] : its %S reads 27.41
